# target_or_test_system: Neu5Ac(a2-3)Gal(b1-4)GlcNAc(b1-3)Gal
# experiment_summary: glycan array binding signal (z-score within array); higher = stronger binding
# cond: glycan notation: IUPAC condensed, linker removed
This is one part of a sample in which the strongest signals are shown more often than they occur.
For each entry below, report its glycan array binding signal (z-score) value.
Answers are plain numbers.

// known answers, use as guide
binder="Drgal1 (Danio rerio) (protein) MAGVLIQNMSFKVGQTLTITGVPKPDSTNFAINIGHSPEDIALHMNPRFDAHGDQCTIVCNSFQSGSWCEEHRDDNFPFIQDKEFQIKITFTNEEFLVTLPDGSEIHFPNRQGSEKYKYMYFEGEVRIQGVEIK" measured_number=-0.372
binder="Gal 12 (Homo sapiens), Q96DT0 (protein) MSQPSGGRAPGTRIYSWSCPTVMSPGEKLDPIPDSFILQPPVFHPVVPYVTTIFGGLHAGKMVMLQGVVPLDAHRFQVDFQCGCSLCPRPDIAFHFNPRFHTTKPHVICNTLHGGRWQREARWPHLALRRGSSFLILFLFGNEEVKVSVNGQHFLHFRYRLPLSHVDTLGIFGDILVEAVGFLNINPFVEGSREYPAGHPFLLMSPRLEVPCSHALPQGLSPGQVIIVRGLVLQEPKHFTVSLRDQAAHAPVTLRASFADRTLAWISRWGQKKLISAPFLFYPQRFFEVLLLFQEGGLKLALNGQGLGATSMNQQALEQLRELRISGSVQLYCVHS" measured_number=-0.004
binder="MFG-E8 (Homo sapiens), Q08431 (protein) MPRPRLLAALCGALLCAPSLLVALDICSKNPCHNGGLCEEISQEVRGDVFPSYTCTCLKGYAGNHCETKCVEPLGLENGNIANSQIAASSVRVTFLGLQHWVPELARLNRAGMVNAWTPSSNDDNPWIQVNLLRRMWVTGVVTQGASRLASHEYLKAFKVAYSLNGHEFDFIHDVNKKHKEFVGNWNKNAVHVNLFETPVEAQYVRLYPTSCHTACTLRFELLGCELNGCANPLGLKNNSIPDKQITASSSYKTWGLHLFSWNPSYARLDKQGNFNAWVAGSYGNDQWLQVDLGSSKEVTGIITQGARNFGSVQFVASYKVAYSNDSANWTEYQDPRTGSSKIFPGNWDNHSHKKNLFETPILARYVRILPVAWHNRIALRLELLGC" measured_number=0.052
binder="CML1 (Coprinopsis cinerea) (protein) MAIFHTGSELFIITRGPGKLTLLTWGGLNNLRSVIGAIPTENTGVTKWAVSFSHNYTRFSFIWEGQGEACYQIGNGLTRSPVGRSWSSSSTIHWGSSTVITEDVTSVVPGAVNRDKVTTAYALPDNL" measured_number=-0.3

Now look at this one.
// field: glycan array binding signal (z-score); key: ERGIC1-EDTA (Homo sapiens), Q969X5 (protein) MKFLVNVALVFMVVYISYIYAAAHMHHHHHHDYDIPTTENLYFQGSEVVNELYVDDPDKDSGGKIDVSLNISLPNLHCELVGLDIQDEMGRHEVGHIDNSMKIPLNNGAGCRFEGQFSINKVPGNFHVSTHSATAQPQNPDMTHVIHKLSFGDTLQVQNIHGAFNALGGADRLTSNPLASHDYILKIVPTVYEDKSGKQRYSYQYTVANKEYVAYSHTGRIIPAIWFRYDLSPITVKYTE ; value = -0.734
